- study system: T1, PUF4 RNA-binding domain (Saccharomyces cerevisiae, UniProt P25339 537-888)
- T1 sequence: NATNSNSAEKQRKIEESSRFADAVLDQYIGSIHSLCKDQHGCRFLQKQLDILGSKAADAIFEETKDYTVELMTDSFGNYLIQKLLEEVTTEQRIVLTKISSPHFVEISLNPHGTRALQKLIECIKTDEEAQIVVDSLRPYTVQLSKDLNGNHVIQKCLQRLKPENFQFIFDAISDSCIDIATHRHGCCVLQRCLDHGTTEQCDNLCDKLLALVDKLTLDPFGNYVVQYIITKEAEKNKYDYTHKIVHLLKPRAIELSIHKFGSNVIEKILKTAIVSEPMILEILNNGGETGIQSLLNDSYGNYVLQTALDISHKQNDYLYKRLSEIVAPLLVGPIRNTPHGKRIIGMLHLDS
- method notes: Mg; RNA-MaP; 20 mM Na-HEPES pH 7.4, 30 mM KOAc, 0.75 mM MgCl2, 0.1% Tween-20, 5% glycerol, 0.1 mg/mL BSA, 2 mM DTT; 25 C; 0.0125-409.6 nM protein
- condition info: tags: N-His6-TEV cleaved; C-SNAP kept, Cy3B-labelled; label: tethered on chip by stalled RNA polymerase
observed property: Kd

Q: Fill blank: measured Kd of the binder UCUCUUCGACACUUAUUAACUCUCUU (ssRNA) [Id_ii_S1_P5E.4_K5.3_C5.2_[T-1G]_H5.3_A5.1_F5.1_T5.2_[T11A]_[A12C]] is ____.
Result: > 2300 nM

Q: Fill blank: measured Kd of the binder ACAAACCUACACUAUAAUACAAAC (ssRNA) [Id_ii_S3_P3E.4_K3.3_C3.2_H3.3_A3.1_F3.1_T3.2_[T9A]_[A10T]] is ____.
Result: > 2300 nM

Q: Fill blank: measured Kd of the binder ACAAACGAACACUAUAAUACAAAC (ssRNA) [Id_ii_S3_P3E.4_K3.3_C3.2_[C-2G]_[T-1A]_H3.3_A3.1_F3.1_T3.2_[T9A]_[A10T]] is ____.
Result: > 2300 nM
